- Assayed target: Glucose transporter (Leishmania mexicana)
- Procedure text: ST_JUDE_LEISH: Cytotoxicity at 2uM final concentration against transgenic Leishmania Mexicana promastigotes LmGT2 that are glucose transport deficient and complemented with the L. Mexicana glucose transporter 2. Activity is measured by DNA content using SYBR green in vitro
- Format: functional
Here, each record is paired with measured inhibition data.
Number only, in %; omit the unit.

# count of solved cases: 8
Compound	Assay readout	Reported value
Cc1n[nH]c2cc(Nc3nccc(Nc4ccc(Oc5ccccc5)cc4)n3)ccc12	inhibition	6.15
CC(CCc1ccccc1)NCC(O)c1cccc([N+](=O)[O-])c1 (stereo not given)	inhibition	1.35
CCOC(=O)c1nc(-c2cccc(F)c2)[nH]c1N	inhibition	2.23
N=c1n(Cc2ccccc2)c2ccccc2n1CC(O)c1ccc(Cl)cc1 (stereo not given)	inhibition	1.14
CC1c2cccc(O)c2CCN1CCc1ccc(Cl)c(Cl)c1 (stereo not given)	inhibition	5.5
Cc1cccc2nc(-c3cccc(-c4ccc(C(=O)NCc5ccccc5S(C)(=O)=O)cc4)c3)[nH]c12	inhibition	2.53
COc1ccc(Nc2nc(NCc3cccc(NS(C)(=O)=O)c3)cc(-c3ccc(OC)cc3)n2)cc1	inhibition	1.09
CN1CCCC(OC(=O)c2ccccc2)C1 (stereo not given)	inhibition	3.1

Incoming: For the compound O=C1COc2ccc(S(=O)(=O)N3CCC[C@@H]3CCN3CCC(c4c[nH]c5cnccc45)CC3)cc2N1 , give its measured inhibition value.
Outgoing: 2.12

Incoming: Find the measured inhibition of Cc1ccc(Nc2nc(N)c3ccccc3n2)cc1 and report it.
Outgoing: 4.74

Incoming: Please give measured inhibition of the following entry: Cc1nc(-c2ccc(-c3ccc(C(=O)Nc4ccc(I)c(OCCN5CCCC5)c4)cc3)c(C)c2)no1
Outgoing: 1.38

Incoming: Return the recorded inhibition value; entry: Cc1cc(C(=O)NCc2ccc(-c3c(C)noc3C)cc2)n(-c2ccccc2)n1
Outgoing: 3.34

Incoming: Find the measured inhibition of O=C(/C=C/c1ccc(Cl)c(Cl)c1)N1CCC(CN2CCC(c3c[nH]c4cnccc34)CC2)CC1 and report it.
Outgoing: 4.67

Incoming: // fetch inhibition given entry NC(=O)c1ccccc1OCC(=O)Nc1cccc(-c2ccc(-c3nc4cc(C(F)(F)F)ccc4[nH]3)cc2)c1
Outgoing: 2.79

Incoming: Report measured inhibition; entry is CCCc1cc(Cc2cnc(N)nc2N)cc(CCC)c1OCCCCC(=O)O
Outgoing: 0.16

---

- Assayed target: Glucose transporter (Leishmania mexicana) (UniProt O61059)
- Procedure text: ST_JUDE_LEISH: Cytotoxicity at 2uM final concentration against transgenic Leishmania Mexicana promastigotes LmGT2 that are glucose transport deficient and complemented with the L. Mexicana glucose transporter 2. Activity is measured by DNA content using SYBR green in vitro
- Type: functional
Assay readout: inhibition (%)
A number alone suffices; assume %.

Molecule	inhibition (%)
c1ccc(-c2cc(NCCNc3cc(-c4ccccc4)nc4ccccc34)c3ccccc3n2)cc1	15.2
N#Cc1ccc(-c2ccc(C(=O)NC3CCN(CCN4CCC(c5cn(CCO)c6ccccc56)CC4)CC3)cc2)cc1	1.44
Cc1cc(NCc2ccc(F)cc2)nc2cc(O)ccc12	1.59
Cc1[nH]c(C)c(-c2ccc(OCc3ccccc3)cc2)c(=O)c1Br	-2.04
COC(=O)c1ccccc1N1CCN(CCCCNC(=O)c2ccc(NC(=O)c3cc(Cl)cc(Cl)c3)cc2)CC1	3.09

Incoming: Give the reported inhibition for this molecule. COc1cc2nc(N3CCC(CNC(=O)c4cccc5cc[nH]c45)CC3)nc(N)c2cc1OC
Outgoing: 5.67

Incoming: Note down inhibition recorded for CN(C)CCCN1CCN(C(=O)c2cccc(-c3noc(C(F)(F)F)n3)c2)CC1
Outgoing: 3.7

Incoming: Assign inhibition to the following record: C[C@@H](COc1ccccc1)NCC(O)c1ccc([N+](=O)[O-])c(OCc2ccccc2)c1 (some centres undefined)
Outgoing: 0.1

Incoming: // Input: O=C(/C=C/c1ccc(Cl)c(Cl)c1)NCCCCCN1CC[C@H](NC(=O)c2ccc3c(c2)OCO3)C1 . Output its inhibition only.
Outgoing: 3.74

Incoming: Let me know recorded inhibition for Cc1cccn2c(=O)c3cc(C(=O)NC(C)c4ccccc4)c(=N)n(CCc4ccccc4)c3nc12 (centres undefined) , thanks.
Outgoing: 11.9

Incoming: Give the reported inhibition for this molecule. Cc1cccc2nc(-c3cccc(-c4ccc(NC(=O)c5c[nH]cn5)cc4)c3)[nH]c12
Outgoing: -1.26

Incoming: Answer with the recorded inhibition for the molecule listed here: COc1ccc(CN(C)CCCc2ccc(NC(=O)c3cccc4c(O)c5ccccc5nc34)cc2)cc1OC
Outgoing: 1.93

Incoming: Quickly give me recorded inhibition for O=C1NC(c2ccccc2)C2(CCN(CC(O)COc3cccc4ncccc34)CC2)O1 (centres undefined)
Outgoing: 1.26

Incoming: Return reported inhibition. Input molecule: O=C(/C=C/c1ccc(Cl)c(Cl)c1)N1CCC(C(O)CN2CCC(c3c[nH]c4ccccc34)CC2)CC1 (centres undefined)
Outgoing: 0.09

Incoming: Supply reported inhibition belonging to this molecule: Cc1cc(-c2cccc(CNC3CCCC3)c2)ccc1S(=O)(=O)NCCN1CCCC1
Outgoing: 6.24

Incoming: Consider the molecule O=C(Nc1ccc(Cl)c(Cl)c1)N1CCC(NCc2cccc([N+](=O)[O-])c2)CC1 . State its measured inhibition.
Outgoing: 3.26

Incoming: Please report the measured inhibition for Cc1cccc(Nc2nccc(NCC(O)c3ccc(C(F)(F)F)cc3)n2)c1 (centres undefined)
Outgoing: 2.83

Incoming: Annotate the molecule CN(c1ccc(NC(=O)Nc2cccc(Cl)c2)cc1)c1ccnc(N)n1 with its measured inhibition.
Outgoing: -0.01

Incoming: Write down inhibition measured for item O=C(Nc1ccc(Cl)cc1)c1cccc(S(=O)(=O)NC2CCN(CC3CCCCC3)C2)c1 (centres undefined)
Outgoing: 4.13

Incoming: Specify inhibition for CC(=O)NC(c1cccs1)c1cc(Cl)c2cccnc2c1O (centres undefined) and stop.
Outgoing: 7.85

Incoming: Give inhibition for the following molecule: COc1cc2nc(N3CCC(CNC(=O)c4ccc(-c5ccc(C(F)(F)F)cc5)cc4)CC3)nc(N)c2cc1OC
Outgoing: -0.23

Incoming: Return inhibition (reported value) for this molecule: CCNC(=O)N1CCN(c2nc(-c3ccccc3)nc(COC)c2Cc2ccc(C)cc2)CC1
Outgoing: 3.78

Incoming: // fetch inhibition given entry CN(C)CC1c2[nH]c3ccccc3c2CCN1C(=O)Nc1ccc(Cl)c(Cl)c1 (centres undefined)
Outgoing: 5.8

Incoming: Specify measured inhibition for O=C(NC1CCN(Cc2ccccc2)CC1)c1ccc(-c2nc3cc(Cl)c(Cl)cc3[nH]2)s1 .
Outgoing: 1.39

Incoming: Determine from records and report inhibition for COc1ccc(CNC2CCN(C)CC2)cc1-c1ccc(S(=O)(=O)NC2CCC2)cc1
Outgoing: 2.91

Incoming: Respond only with inhibition recorded for COc1cccc(Nc2c(C(N)=O)cnc3ccc(-c4ccc([S+](C)[O-])cc4)cc23)c1 (centres undefined)
Outgoing: 0.66

Incoming: State its inhibition for this molecule: C#CCNCc1ccc(-c2ccc(-c3nc4cc(C(F)(F)F)ccc4[nH]3)s2)cc1
Outgoing: -1.09

Incoming: Supply measured inhibition of CC(C)(C)c1ccc(CN2CCC(NC(=O)c3ccc(-c4cccc(F)c4)s3)CC2)cc1 in your reply.
Outgoing: 2.67

Incoming: Input CCc1c[nH]c2c(N3CCCC3=O)cc(C(=O)N[C@@H](Cc3ccccc3)[C@H](O)CNC(C)(C)c3cccc(C(F)(F)F)c3)cc12 , output reported inhibition.
Outgoing: -0.27

---

- Assayed target: Solute carrier family 2, facilitated glucose transporter member 1 (Homo sapiens)
- Procedure text: ST_JUDE_LEISH: Cytotoxicity at 2uM final concentration against transgenic Leishmania Mexicana promastigotes LmGLUT1 that are glucose transport deficient and complemented with the human glucose transporter GLUT1. Activity is measured by DNA content using SYBR green in vitro
- Type: functional
Assay readout: inhibition (%)
Give the value, in units of %, as a plain number.

# count of solved cases: 5
Molecule	inhibition / %
CN1CCCN(Cc2ccc(-c3cccc(NC(=O)c4cccc(C#N)c4)c3)cc2)CC1	8.55
COc1cc(NCCCNC(=O)c2cc3c(Cl)cc(Cl)cc3[nH]2)nc2ccccc12	2.04
Clc1cc(Br)ccc1-c1ccc(CNCC2CCNCC2)o1	0.75
Cc1cc(=NN=Cc2ccccc2F)c2cc(C(F)(F)F)ccc2[nH]1	1.67
CCN1CCN(CCCNc2ccnc3cc(Cl)ccc23)CC1	0.93

Incoming: Please report the measured inhibition for N#Cc1ccc(OCCN(Cc2ccccc2C(F)(F)F)c2ccc(C#N)c(C(F)(F)F)c2)cc1
Outgoing: 10.1

Incoming: Look up and state reported inhibition for Cc1cc(O)c(CN(C)Cc2ccc3c(c2)OCO3)cc1C(C)C
Outgoing: -0.84

Incoming: Supply recorded inhibition for CN(C)CCCOc1ccc(CN2CC[C@H](NC(=O)c3ccc(Cl)c(Cl)c3)C2)c2ccccc12 here.
Outgoing: -0.55

Incoming: Specify reported inhibition for the molecule shown: O=C(Nc1ccc(C(F)(F)F)cc1)c1ccc(S(=O)(=O)NC2CCN(CC3CCCCC3)C2)cc1 (stereo not given)
Outgoing: -3

Incoming: Quickly give me recorded inhibition for N#Cc1ccc2[nH]cc(C(=O)CCCCCN(Cc3ccccc3)Cc3ccccc3)c2c1
Outgoing: 0.31
